# Tested on: 439559-082-T-J2-PDC spheroid viability;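 note: spheroids exposed to compounds for seven days before readout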
# experiment description: Anticancer human tumor 439559-082-T-J2-PDC patient-derived colon adenocarcinoma cell line growth inhibition [POLQ]
# study conditions: second compound 1 µM; first compound 1 µM; stronger effect = lower value; spheroids with HUVEC and MSC
Label MET when viability, T/C < 90%; otherwise NOT MET.

compound="CCc1c2c(nc3ccc(O)cc13)-c1cc3c(c(=O)n1C2)COC(=O)[C@]3(O)CC + Nc1ccc(C#CCN(C(=O)Cc2ncc(C(F)(F)F)cc2C(F)(F)F)c2ccc(F)cc2)nn1" class_label=MET
compound="CCc1cc2c(N3CCc4c(cc(Cn5ccnc5)cc4-c4cn(C)nc4C(F)(F)F)C3=O)cc(C)nc2c(OC)n1 + Nc1ccc(C#CCN(C(=O)Cc2ncc(C(F)(F)F)cc2C(F)(F)F)c2ccc(F)cc2)nn1" class_label=MET
compound="COc1cccc2c1C(=O)c1c(O)c3c(c(O)c1C2=O)CC(O)(C(=O)CO)CC3OC1CC(N)C(O)C(C)O1 (stereo not given) + COC1C(OC(N)=O)C(O)C(Oc2ccc3c(O)c(NC(=O)c4ccc(O)c(CC=C(C)C)c4)c(=O)oc3c2C)OC1(C)C" class_label=MET
compound="CCc1cc2c(N3CCc4c(cc(Cn5ccnc5)cc4-c4cn(C)nc4C(F)(F)F)C3=O)ccnc2c(OC)n1 + COC1C(OC(N)=O)C(O)C(Oc2ccc3c(O)c(NC(=O)c4ccc(O)c(CC=C(C)C)c4)c(=O)oc3c2C)OC1(C)C" class_label="NOT MET"
compound="CCc1cc2c(N3CCc4c(cc(Cn5ccnc5)cc4-c4cn(C)nc4C(F)(F)F)C3=O)cc(C)nc2c(OC)n1 + COC1C(OC(N)=O)C(O)C(Oc2ccc3c(O)c(NC(=O)c4ccc(O)c(CC=C(C)C)c4)c(=O)oc3c2C)OC1(C)C" class_label="NOT MET"

Does the reported viability, T/C of COc1cccc(OCCCN)c1-c1cc(Nc2cnc(C#N)cn2)n[nH]1 + COC1C(OC(N)=O)C(O)C(Oc2ccc3c(O)c(NC(=O)c4ccc(O)c(CC=C(C)C)c4)c(=O)oc3c2C)OC1(C)C stay below 90%? MET

And the next one, C=CC(=O)N1CCN(c2nc(=O)n(-c3c(C)ccnc3C(C)C)c3nc(-c4c(O)cccc4F)c(F)cc23)C(C)C1 (stereo not given) + Nc1ccc(C#CCN(C(=O)Cc2ncc(C(F)(F)F)cc2C(F)(F)F)c2ccc(F)cc2)nn1 ? NOT MET

Similarly, CC1COCCN1c1cc(C2(S(C)(=N)=O)CC2)nc(-c2ccnc3[nH]ccc23)n1 (stereo not given) + COC1C(OC(N)=O)C(O)C(Oc2ccc3c(O)c(NC(=O)c4ccc(O)c(CC=C(C)C)c4)c(=O)oc3c2C)OC1(C)C ? MET
